Data origin: patent US11491168B2

- Test system: subcutaneous NCI-H146 lung cancer xenograft
- MEASUREMENT_NOTES: NCI-H146 lung cancer xenograft model (Example 8)
- Type: in vivo, female SCID mice
- TEST_PARAMETERS: Compound 15 20 mg/kg i.v. BIW, Irinotecan 5 mg/kg i.p. QW, Paclitaxel 10 mg/kg i.v. QW, Cisplatin 1 mg/kg i.p. Q4D
Can you tell me RTV @day 21 for the items I'm about to list?
One number for each entry.

# count of solved cases: 3
MOLECULE	RTV @day 21
N.N.[Cl][Pt][Cl] [cisplatin]	2.6
CCc1c2c(nc3ccc(OC(=O)N4CCC(N5CCCCC5)CC4)cc13)-c1cc3c(c(=O)n1C2)COC(=O)[C@]3(O)CC	1.0
Cc1c(S(C)(=O)=O)c(-c2cc(F)cc(N3CCN(c4ccc(NS(=O)(=O)c5ccc(N[C@H](CCN6CCC(C(=O)OCCP(=O)(O)O)CC6)CSc6ccccc6)c(S(=O)(=O)C(F)(F)F)c5)cc4)CC3)c2)c(-c2ccc(Cl)cc2)n1C(C)C	2.0

Item under review: `CC(=O)O[C@H]1C(=O)[C@@]2(C)[C@H]([C@H](OC(=O)c3ccccc3)[C@]3(O)C[C@H](OC(=O)[C@H](O)[C@@H](NC(=O)c4ccccc4)c4ccccc4)C(C)=C1C3(C)C)[C@]1(OC(C)=O)CO[C@@H]1C[C@@H]2O` . Reported RTV @day 21?
1.4
